Experiment: Compound brain levels after intraperitoneal injection
Format: in vivo
Conditions: rat, brain, ip; single intraperitoneal injection, 10 mg/kg, Sprague–Dawley rats
Protocol: Compound brain levels. For an in-depth description of the brain and blood at 7h, we refer to the protocol of Evotec (France, Study No. DMPK-2020-494) in the supplementary information file.
Property Measured: Cmax

Q: Suppose we examine the molecule `[O-][S@@+](Cc1cccs1)[C@@H](c1ccccc1)c1cccc(Br)c1` ; what Cmax value has been reported?
Result: 478 ng/g

====

Biological target: noradrenaline transporter/SLC6A2 (NET) (Homo sapiens, UniProt P23975)
Construct: expressed in transfected cells; host or cells: HEK293
Sequence (P23975 whole entry): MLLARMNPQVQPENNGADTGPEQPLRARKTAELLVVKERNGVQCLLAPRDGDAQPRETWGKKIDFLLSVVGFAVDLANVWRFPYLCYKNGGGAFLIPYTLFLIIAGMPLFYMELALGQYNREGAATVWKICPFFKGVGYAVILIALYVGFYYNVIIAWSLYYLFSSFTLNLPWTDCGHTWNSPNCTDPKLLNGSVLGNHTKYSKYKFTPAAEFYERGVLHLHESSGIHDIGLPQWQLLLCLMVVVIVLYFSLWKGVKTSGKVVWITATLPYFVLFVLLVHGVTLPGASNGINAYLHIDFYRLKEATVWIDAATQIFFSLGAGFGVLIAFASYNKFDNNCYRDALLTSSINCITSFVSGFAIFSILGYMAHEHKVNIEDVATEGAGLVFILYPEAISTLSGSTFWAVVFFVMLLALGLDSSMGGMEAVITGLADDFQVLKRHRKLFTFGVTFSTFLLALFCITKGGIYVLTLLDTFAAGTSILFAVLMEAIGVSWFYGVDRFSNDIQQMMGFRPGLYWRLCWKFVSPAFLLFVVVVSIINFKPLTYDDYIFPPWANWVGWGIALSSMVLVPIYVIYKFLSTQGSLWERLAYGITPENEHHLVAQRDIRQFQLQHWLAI
Assay: Cellular uptake experiments: [3H]-noradrenaline reuptake inhibition in transporter-expressing HEK293 cells
Assay type: cell-based
Settings: at 50 µM / tested concentration range
Property Measured: activity on NET (reuptake inhibition), in words

| Molecule | Obs Value |
| --- | --- |
| [O-][S+](Cc1cccs1)C(c1ccccc1)c1ccccc1Br (stereo not shown) [Compound 7g] | no effect |
| [O-][S+](Cc1cccs1)C(c1ccccc1)c1ccccc1Br (stereo not shown) [Compound 5g] | no effect |

====

Molecular target: human DAT (Homo sapiens)
Sequence (Q01959 whole entry): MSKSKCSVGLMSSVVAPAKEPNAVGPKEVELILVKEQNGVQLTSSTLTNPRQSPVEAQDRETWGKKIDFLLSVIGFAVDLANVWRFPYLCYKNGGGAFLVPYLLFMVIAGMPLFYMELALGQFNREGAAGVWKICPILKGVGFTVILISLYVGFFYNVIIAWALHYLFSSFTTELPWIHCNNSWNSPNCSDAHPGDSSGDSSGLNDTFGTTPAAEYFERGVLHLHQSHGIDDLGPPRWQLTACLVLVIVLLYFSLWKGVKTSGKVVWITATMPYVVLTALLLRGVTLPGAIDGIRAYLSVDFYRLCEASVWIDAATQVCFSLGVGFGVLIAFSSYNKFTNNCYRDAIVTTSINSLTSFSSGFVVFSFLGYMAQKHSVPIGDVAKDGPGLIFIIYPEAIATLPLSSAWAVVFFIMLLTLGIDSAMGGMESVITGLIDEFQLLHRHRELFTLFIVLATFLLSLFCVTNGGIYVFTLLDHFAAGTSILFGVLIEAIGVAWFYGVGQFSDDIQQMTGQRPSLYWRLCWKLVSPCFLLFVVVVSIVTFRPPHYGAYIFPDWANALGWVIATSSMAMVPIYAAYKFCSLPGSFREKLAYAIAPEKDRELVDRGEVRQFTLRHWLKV
Parameter: Ki. Scope: all listed entries.
Number only, in nM; omit the unit.

| Smiles Code | Target Or Test System | Unit Info | Ki |
| --- | --- | --- | --- |
| [O-][S@@+](Cc1cccs1)[C@@H](c1ccccc1)c1cccc(Br)c1 | human DAT (Homo sapiens) | nM | 13 |

// switching to the query compound
Q: Kindly state the measured Ki obtained for `[O-][S@+](Cc1cccs1)[C@H](c1ccccc1)c1cccc(Br)c1` with human DAT (Homo sapiens).
Result: 35

====

Assay: Compound brain levels after intraperitoneal injection
Type: in vivo
Settings: rat, brain, ip; single intraperitoneal injection, 10 mg/kg, Sprague–Dawley rats; read-out: median Tmax in the brain
Property Measured: Tmax
Quick note: unit goes after the number.

Q: Fill blank: measured Tmax of the molecule [O-][S@@+](Cc1cccs1)[C@@H](c1ccccc1)c1cccc(Br)c1 [Compound 7h] is ____.
Result: 1 h

====

Experiment: Compound brain levels after intraperitoneal injection
Format: in vivo
Details: rat, brain, ip; single intraperitoneal injection, 10 mg/kg, Sprague–Dawley rats
Property Measured: half-life (h)
Just the number please, in h, no unit attached.

Q: Recorded half-life for [O-][S@@+](Cc1cccs1)[C@@H](c1ccccc1)c1cccc(Br)c1 [Compound 7h] , please?
Result: 3

====

Target: human dopamine transporter/SLC6A3 (DAT) (Homo sapiens, UniProt Q01959)
Construct: expressed in transfected cells; host or cells: HEK293
Assay: Cellular uptake experiments: [3H]-dopamine reuptake inhibition in transporter-expressing HEK293 cells
Assay type: cell-based
Details: Reuptake Inhibition (IC50 ± SE, µM) DAT, cells stably expressing DAT; [3H]-dopamine 1 µM; screening cut-off 50 µM
Categorized via IC50: low (below 2 µM), mid (2 µM to below 9 µM), high (9 µM or more)

Worked cases, answers included:
| Molecule | Target Or Test System | Class Assignment |
| --- | --- | --- |
| [O-][S+](Cc1cccs1)C(c1ccccc1)c1ccccc1Br (stereo not drawn) [Compound 7g] | human dopamine transporter/SLC6A3 (DAT) (Homo sapiens, UniProt Q01959) | high |
| COc1ccc([C@@H](c2ccccc2)[S@+]([O-])Cc2cccs2)cc1 [Compound 6t] | human dopamine transporter/SLC6A3 (DAT) (Homo sapiens, UniProt Q01959) | high |
| [O-][S+](Cc1cccs1)C(c1ccccc1)c1cccc(I)c1 (stereo not drawn) [Compound 8j] | human dopamine transporter/SLC6A3 (DAT) (Homo sapiens, UniProt Q01959) | low |
| [O-][S+](Cc1cccs1)C(c1ccccc1)c1ccc(C(F)(F)F)cc1 (stereo not drawn) [Compound 5q] | human dopamine transporter/SLC6A3 (DAT) (Homo sapiens, UniProt Q01959) | high |
| COc1ccccc1[C@@H](c1ccccc1)[S@@+]([O-])Cc1cccs1 [Compound 7r] | human dopamine transporter/SLC6A3 (DAT) (Homo sapiens, UniProt Q01959) | low |
| [O-][S+](Cc1cccs1)C(c1ccccc1)c1ccccc1I (stereo not drawn) [Compound 7i] | human dopamine transporter/SLC6A3 (DAT) (Homo sapiens, UniProt Q01959) | high |
| [O-][S@+](Cc1cccs1)[C@@H](c1ccccc1)c1ccc(I)cc1 [Compound 6k] | human dopamine transporter/SLC6A3 (DAT) (Homo sapiens, UniProt Q01959) | low |
| [O-][S@@+](Cc1cccs1)[C@@H](c1ccccc1)c1cccc(Cl)c1 [Compound 7e] | human dopamine transporter/SLC6A3 (DAT) (Homo sapiens, UniProt Q01959) | low |

Q: Which bin should I file [O-][S@@+](Cc1cccs1)[C@H](c1ccccc1)c1ccc(I)cc1 [Compound 5k] under?
Result: mid

Q: Class? Entry: [O-][S+](Cc1cccs1)C(c1ccccc1)c1ccccc1Br (stereo not drawn) [Compound 6g]
Result: high

Q: Any idea which band [O-][S@@+](Cc1cccs1)[C@@H](c1ccccc1)c1ccc(Cl)cc1 [Compound 7f] is in?
Result: mid

Q: Class? Entry: [O-][S+](Cc1cccs1)C(c1ccccc1)c1ccccc1C(F)(F)F (stereo not drawn) [Compound 6o]
Result: high

Q: Input [O-][S+](Cc1cccs1)C(c1ccccc1)c1cccc(I)c1 (stereo not drawn) [Compound 6j] ; output its category
Result: high

Q: # bin lookup: classify [O-][S+](Cc1cccs1)C(c1ccccc1)c1ccccc1I (stereo not drawn) [Compound 8i] by its IC50
Result: high

Q: Exam item: assign [O-][S+](Cc1cccs1)C(c1ccccc1)c1ccccc1Br (stereo not drawn) [Compound 8g] to the correct category.
Result: mid

Q: Please let me know in which category the item [O-][S+](Cc1cccs1)C(c1ccccc1)c1ccccc1I (stereo not drawn) [Compound 5i] belongs.
Result: high

Q: Kindly state the category for this molecule: [O-][S+](Cc1cccs1)C(c1ccc(F)cc1)c1ccc(Cl)cc1 (stereo not drawn) [Compound 8u]
Result: mid

Q: Category of [O-][S+](Cc1cccs1)C(c1ccccc1)c1cccc(I)c1 (stereo not drawn) [Compound 5j] :
Result: mid

Q: Classify this molecule: COc1ccc([C@H](c2ccccc2)[S@@+]([O-])Cc2cccs2)cc1 [Compound 5t]
Result: high

Q: # classify by IC50 band: Cc1cccc([C@@H](c2ccccc2)[S@@+]([O-])Cc2cccs2)c1 [Compound 5m]
Result: mid

Q: Which of the defined bands does the recorded IC50 of COc1ccc([C@H](c2ccccc2)[S@+]([O-])Cc2cccs2)cc1 [Compound 8t] sit within?
Result: high

Q: Bin this entry: [O-][S+](Cc1cccs1)C(c1ccc(F)cc1)c1ccc(Cl)cc1 (stereo not drawn) [Compound 7u]
Result: mid

Q: Class (by measured IC50) for [O-][S@@+](Cc1cccs1)[C@@H](c1ccccc1)c1ccc(I)cc1 [Compound 7k]
Result: high

Q: Categorize the following entry: [O-][S@@+](Cc1cccs1)[C@H](c1ccccc1)c1cccc(Br)c1 [Compound 5h]
Result: low
